All figures here come from patent US6620811B2.

Recorded measurements of melting point, one per entry

Example results:
For the compound COC[C@@H]1CCCN1Cc1cc(C(=O)Nc2nc3c(OC)ccc(N4CCOCC4)c3s2)ccn1 [Example 105] , what melting point is on record? 110 to 113 °C

Name the reported melting point value associated with the compound COC[C@H]1CCN(Cc2cc(C(=O)Nc3nc4c(OC)ccc(N5CCOCC5)c4s3)ccn2)C1 [Example 106] 93 to 96 °C

More entries:
Give the measured melting point of CCOCCN(C)Cc1cc(C(=O)Nc2nc3c(OC)ccc(N4CCOCC4)c3s2)ccn1 [Example 104] . 159 to 160 °C

What does the record list as melting point for COc1ccc(N2CCOCC2)c2sc(NC(=O)c3ccnc(Cn4ccnc4C)c3)nc12 [Example 107] ? 264 to 265 °C

# lookup: melting point of COc1ccc(N2CCOCC2)c2sc(NC(=O)c3ccnc(CN4CCC(O)CC4)c3)nc12 [Example 102] 125 °C

// melting point lookup, key: COc1ccc(N2CCOCC2)c2sc(NC(=O)c3ccnc(CN(C)C(C)=O)c3)nc12 [Example 108] 228 to 230 °C

What value of melting point has been recorded for this entry: CCSCc1cc(C(=O)Nc2nc3c(OC)ccc(N4CCOCC4)c3s2)ccn1 [Example 103] 158 to 159 °C
